Provide the reported shrunken log2 fold change of each item.
Test system: Escherichia coli TOP10
TEST: shrunken log2 fold change of peptide-encoding DNA abundance (4.5 h post-induction vs induction); higher = less antimicrobial activity (less host growth inhibition)
CONDITION_SUMMARY: time post-induction: 4.5 h; library: site-saturation at positions 5, 18, 19, 20
Numbers only.

Some sequences with recorded shrunken log2 fold change:
RRIRERPPRLPRPRPRPTHVPRP :: 0.231
RRIRCRPPRLPRPRPRPDKTPRP :: -0.0581
RRIRSRPPRLPRPRPRPHHNPRP :: -0.708
RRIRMRPPRLPRPRPRPQKSPRP :: 0.167
RRIRWRPPRLPRPRPRPKMIPRP :: -0.22

Parameter requested: shrunken log2 fold change. Apply to each item below.
1. RRIRCRPPRLPRPRPRPWTKPRP
2. RRIRHRPPRLPRPRPRPHIHPRP
3. RRIRARPPRLPRPRPRPQEQPRP
4. RRIRSRPPRLPRPRPRPTLMPRP
5. RRIRHRPPRLPRPRPRPWFRPRP
6. RRIRERPPRLPRPRPRPQGEPRP
7. RRIRWRPPRLPRPRPRPYDHPRP

## Result
1. -0.402
2. -0.328
3. 0.0884
4. 0.091
5. -0.00674
6. -0.0686
7. -0.207

Parameter requested: shrunken log2 fold change. Apply to each item below.
1. RRIRARPPRLPRPRPRPIKKPRP
2. RRIRNRPPRLPRPRPRPTNYPRP
3. RRIRRRPPRLPRPRPRPWPSPRP
4. RRIRPRPPRLPRPRPRPPSYPRP
5. RRIRKRPPRLPRPRPRPKWHPRP
6. RRIRIRPPRLPRPRPRPNNKPRP
7. RRIRLRPPRLPRPRPRPGVGPRP

## Result
1: -0.00732; 2: -0.73; 3: 0.0392; 4: -0.147; 5: 0.0114; 6: -0.85; 7: 0.537

* * *

System: Escherichia coli TOP10;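 also: peptides expressed intracellularly from a pBAD plasmid library in pooled LB shake-flask culture, induced with 0.3% L-arabinose, DNA abundance read by NGS, three biological replicates, DESeq2 with apeglm shrinkage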
TEST: shrunken log2 fold change of peptide-encoding DNA abundance (4.5 h post-induction vs induction); higher = less antimicrobial activity (less host growth inhibition)
CONDITION_SUMMARY: time post-induction: 4.5 h; library: site-saturation at positions 5, 18, 19, 20
# binarize shrunken log2 fold change: threshold -0.01 inclusive, high side 1, low side 0

RRIRMRPPRLPRPRPRPCVVPRP :: 0
RRIRARPPRLPRPRPRPTMLPRP :: 1
RRIRCRPPRLPRPRPRPDGLPRP :: 0
RRIRSRPPRLPRPRPRPLQFPRP :: 1
RRIRWRPPRLPRPRPRPRDQPRP :: 0

## Task Tell me whether shrunken log2 fold change is at least -0.01 here: RRIRMRPPRLPRPRPRPFTYPRP
## Result 0

## Task Tell me whether shrunken log2 fold change is at least -0.01 here: RRIRVRPPRLPRPRPRPMCCPRP
## Result 0

## Task Tell me whether shrunken log2 fold change is at least -0.01 here: RRIRNRPPRLPRPRPRPSEKPRP
## Result 0

## Task Tell me whether shrunken log2 fold change is at least -0.01 here: RRIRWRPPRLPRPRPRPLPAPRP
## Result 1

## Task Tell me whether shrunken log2 fold change is at least -0.01 here: RRIRDRPPRLPRPRPRPNFQPRP
## Result 1

## Task Tell me whether shrunken log2 fold change is at least -0.01 here: RRIRIRPPRLPRPRPRPHVVPRP
## Result 0

## Task Tell me whether shrunken log2 fold change is at least -0.01 here: RRIRFRPPRLPRPRPRPNKLPRP
## Result 0
